biological target: farnesyl protein transferase (Rattus norvegicus, UniProt Q02293+Q04631); construct: partially purified rat brain farnesyl protein transferase (FPT); from tissue; host or cells: rat brain; test: FPT IC50 (inhibition of farnesyl protein transferase, in vitro enzyme assay; Ras-CVLS farnesylation by partially purified rat brain FPT); format: biochemical
MEASURE: pIC50
When answering, recall that pIC50 equals minus log10 of the concentration in mol/L, and write that number alone.

N#CN=C(NCc1ccncc1)N1CCN(C2c3ccc(Cl)cc3CCc3cc(Br)cnc32)CC1 (centres unmarked) [Example 43]    7.96
N#CN=C(Nc1ccc2ncccc2c1)N1CCC(=C2c3ccc(Cl)cc3CCc3cc(Br)cnc32)CC1 [Example 46]    6.82
N#C/N=C(\Nc1ccc([N+](=O)[O-])cc1)N1CCC(=C2c3ccc(Cl)cc3CCc3cc(Br)cnc32)CC1 [Example 48]    7.19
CSC(=NC#N)N1CCC(=C2c3ccc(Cl)c(Br)c3CCc3cc(Br)cnc32)CC1 [Example 66]    7.85
N#CN=C(NCCO)N1CCC(=C2c3ccc(Cl)cc3CCc3cc(Br)cnc32)CC1 [Example 27]    7.77
N#CN=C(NCc1ccncc1)N1CCC(=C2c3ccc(Cl)cc3CCc3cccnc32)CC1 [Example 78]    7.19

Q) Please look up its pIC50: CN(C)CCCNC(=NC#N)N1CCC(=C2c3ccc(Cl)cc3CCc3cc(Br)cnc32)CC1 [Example 45]
A) 7.13

Q) Report pIC50 for N#CN=C(NCc1ccc(N)cc1)N1CCC(=C2c3ccc(Cl)cc3CCc3cc(Br)cnc32)CC1 [Example 53] please.
A) 7.06

Q) # query: pIC50 of entry N#CN=C(NCCCN1CCCC1=O)N1CCC(C2c3ccc(Cl)c(Br)c3CCc3cc(Br)cnc32)CC1 (centres unmarked) [Example 68]
A) 8.15
